Biological target: T1, NLpoly11S
T1 chain: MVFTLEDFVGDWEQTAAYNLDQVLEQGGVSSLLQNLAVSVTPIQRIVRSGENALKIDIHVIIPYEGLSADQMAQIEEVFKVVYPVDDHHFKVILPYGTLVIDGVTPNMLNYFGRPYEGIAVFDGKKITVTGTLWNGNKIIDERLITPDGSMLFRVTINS
Experiment: luminescence complementation titration, one-site specific binding fit
outcome_measure: log10 Kd (log10 of the value in µM)
Please note: log10 values; quantity Kd; unit µM.

-- ask Please give the measured log10 Kd for this binder: VTGYRLFQEIL (modifications not checked) [array2.43]
-- reply 1.24

-- ask Please give the measured log10 Kd for this binder: VEGYRLFEQAS (modifications not checked) [array2.77]
-- reply 1.68

-- ask Please give the measured log10 Kd for this binder: VTGYRLFKQIL (modifications not checked) [array2.31]
-- reply 0.48

-- ask Please give the measured log10 Kd for this binder: VEGYRLFQEAL (modifications not checked) [array2.98]
-- reply 2.00

-- ask Please give the measured log10 Kd for this binder: VTGYRLFQKAS (modifications not checked) [array2.11]
-- reply -0.13

Further cases:
-- ask Please give the measured log10 Kd for this binder: VTGYRLFQKIL (modifications not checked) [array2.37]
-- reply -0.44

-- ask Please give the measured log10 Kd for this binder: VTGYRLFEKEL (modifications not checked) [array2.48]
-- reply 0.39

-- ask Please give the measured log10 Kd for this binder: VTGYRLFKEAL (modifications not checked) [array2.35]
-- reply 0.71

-- ask Please give the measured log10 Kd for this binder: VTGYRLFEKIL (modifications not checked) [array2.46]
-- reply 0.28
